Each recorded value in this set is attributed to ChEMBL document CHEMBL1152947.

# Test system: MCF7
# protocol_notes: Cytotoxicity against human MCF7 cells after 4 days by MTT assay
# Format: functional, cell-based
# experimental_context: MCF7, 96 h
parameter: pIC50
Interpret pIC50 as the negative base-10 log of the concentration measured in mol/L.

Asked: Which pIC50 value is on record for C[C@]12CC[C@@H]3c4ccc(O)cc4C[C@@H](CCCCCCCCC[S+]([O-])CCCC(F)(F)C(F)(F)F)[C@H]3[C@@H]1CC[C@@H]2O (stereo partly specified) ?
Given back: 7.74

---

# Test system: MCF7
# protocol_notes: Growth inhibition of human MCF7 cells after 4 days by MTT assay in presence of 10% fetal bovine serum
# Type: functional, cell-based
# experimental_context: MCF7, 96 h
Each entry below lists one item and its recorded pIC50 value.
Interpret pIC50 as the negative base-10 log of the concentration measured in mol/L.

CC(=O)OCC[C@]1(C)[C@@H]([C@H](C)/C=C/C(C)C)CC[C@H]1C1=C[C@H](O)[C@H]2C[C@@H](O)CC[C@]2(C)C1=O :: 5.12

Asked: Which pIC50 value is on record for CCC(C)/C=C/[C@@H](C)[C@H]1CC[C@@H](C2=C[C@H](O)[C@H]3C[C@@H](O)CC[C@]3(C)C2=O)[C@]1(C)CCOC(C)=O (some centres not stated) ?
Given back: 5.15
